FYI, the data here is from PubChem BioAssay AID330.

# System: P388 leukemia ip, CD2F1 mice, survival T/C
# EXPERIMENT NOTES: NCI In Vivo Anticancer Drug Screen. Data for tumor model P388 Leukemia (intraperitoneal) in CD2F1 (CDF1) mice
# STATED CONDITIONS: endpoint: median survival time; dose: 120.0 mg/kg/injection; schedule: Q01DX005 (ip); vehicle: saline with Tween-80; higher = longer survival
Toxic doses and inconclusive results are not listed.
Each item that follows carries a reported T/C.

Fc1ccc(C(Nc2nncs2)Nc2nncs2)cc1F : 101 % of control
COc1ccc(Cc2cc3c(cc2OC)OCO3)c(OC)c1 : 108 % of control

Short answer for `CCOC(=O)N1CCN(c2cc(C)nc3cc(OC)ccc23)CC1` : T/C was 94 % of control

Short answer for `Cc1c(NC(=O)CCl)c(=O)oc2c(C)c3occc(=O)c3cc12` : T/C was 90 % of control

Short answer for `CS(=O)(=O)C(Cl)(Cl)Cl` : T/C was 107 % of control

Short answer for `CC(=O)O/C(C)=C1\CCn2c1nc1ccccc1c2=O` : T/C was 107 % of control

Short answer for COc1cc(C(c2cc3c(cc2OC(C)=O)OCO3)C(C)C(C)=O)cc(OC)c1OC (configuration not stated) : T/C was 108 % of control

Short answer for `N#Cc1nc(CC(=O)c2ccccn2)c(CC(=O)c2ccccn2)nc1C#N` : T/C was 93 % of control

Short answer for `c1ccc(-c2cc3c(cc4c5nncn5ncn34)o2)cc1` : T/C was 86 % of control

Short answer for `COc1cc2c(c(-c3cn(C)c4ccccc34)c1OC)OCO2` : T/C was 98 % of control

Short answer for `Cn1cc(Cc2c[nH]c3ccccc3c2=O)c2ccccc21` : T/C was 99 % of control

Short answer for `COc1ccc(Cc2coc3ccccc3c2=O)cc1OC` : T/C was 97 % of control

====

# Tested on: P388 leukemia ip, CD2F1 mice, survival T/C
# EXPERIMENT NOTES: NCI In Vivo Anticancer Drug Screen. Data for tumor model P388 Leukemia (intraperitoneal) in CD2F1 (CDF1) mice
# STATED CONDITIONS: endpoint: median survival time; dose: 200.0 mg/kg/injection; schedule: Q01DX005 (ip); vehicle: Klucel (hydroxypropylcellulose) (HPC); higher = longer survival
Inconclusive results and toxic doses are left out.
Each item that follows carries a reported T/C.

O=C(NCCCl)Oc1ccc(F)cc1 : 110 % of control
CC1=CC(=C2C(=O)c3ccccc3C2=O)C=C(C)N1CC#CCN1CCCCC1 : 88 % of control
COc1ccc2[nH]c3c(c(=O)n(C)c(=O)n3C)c2c1 : 92 % of control

Short answer for `c1ccc(CCn2c(-c3ccncc3)nc3ccccc32)nc1` : T/C was 105 % of control

Short answer for `Cc1noc2c1NC(=O)OCC2` : T/C was 97 % of control

Short answer for `Cn1c(C(C)(O)c2cc3c(Cl)nccc3n2C)cc2c(Cl)nccc21` : T/C was 106 % of control

====

Each item that follows carries a reported T/C.
# System: P388 leukemia ip, CD2F1 mice, survival T/C
# EXPERIMENT NOTES: NCI In Vivo Anticancer Drug Screen. Data for tumor model P388 Leukemia (intraperitoneal) in CD2F1 (CDF1) mice
# STATED CONDITIONS: endpoint: median survival time; dose: 100.0 mg/kg/injection; schedule: Q01DX005 (ip); vehicle: saline with Tween-80; higher = longer survival
Toxic doses and inconclusive results are not listed.

CC1(c2ccccc2)CCOCO1 (stereo not drawn) : 98 % of control
C/C([O-])=c1\c(C)nn2ccc[n+]12 : 96 % of control
CC(C)(C)NC1=C([N+](=O)[O-])CCCC1 : 93 % of control
CCn1c2ccc([N+](=O)[O-])cc2c2c([N+](=O)[O-])c(-n3cccc3)ccc21 : 90 % of control
CCB1OC2C(COC(C)=O)OC(OC(C)=O)C2O1 (stereo not drawn) : 110 % of control
COc1cccc(N=C(C)C2C(=O)c3ccccc3C2=O)c1 : 100 % of control

Short answer for O=C1CSC(c2ccccc2O)N1c1nncs1 (stereo not drawn) : T/C was 93 % of control

Short answer for `O=C(N/N=C\c1c(O)ccc2ccccc12)c1ccncc1` : T/C was 105 % of control

====

# Test system: P388 leukemia ip, CD2F1 mice, survival T/C
# EXPERIMENT NOTES: NCI In Vivo Anticancer Drug Screen. Data for tumor model P388 Leukemia (intraperitoneal) in CD2F1 (CDF1) mice
# STATED CONDITIONS: endpoint: median survival time; dose: 50.0 mg/kg/injection; schedule: Q01DX009 (ip); vehicle: saline; higher = longer survival
Toxic doses and inconclusive results are not listed.
Each item that follows carries a reported T/C.

Please review the following examples before continuing.
CC(C)NCCO : 100 % of control
O=C(Nc1ccc(Br)cc1)ON1CCCCC1 : 91 % of control
c1n[nH]c2c1CCCC2 : 91 % of control
O=c1[nH]c2ccccc2[nH]c1=O : 100 % of control
Cn1c(=O)c2[nH]c(Cl)nc2n(C)c1=O : 102 % of control
CCCOCC(=O)O : 106 % of control
CCCCCNc1ccc(NCCCCC)c2c1C(=O)c1ccccc1C2=O : 98 % of control
N#CCCNc1ccc(F)cc1 : 100 % of control
CCC(C)(O)P(=O)(O)O (stereo not drawn) : 98 % of control
CCN(CC)CCn1cnc(C#N)c1N : 101 % of control

Readout T/C for CC(C)c1ccc(C2NC(=S)NC(=O)C2C#N)cc1 (stereo not drawn) , test system P388 leukemia ip, CD2F1 mice, survival T/C, was 101 % of control

Readout T/C for CCCCCCCCCCCCCCCCCCOS(=O)(=O)O (tested in a mixture with another compound) , test system P388 leukemia ip, CD2F1 mice, survival T/C, was 102 % of control

Readout T/C for `Nc1ncncc1-c1ccc(F)cc1` , test system P388 leukemia ip, CD2F1 mice, survival T/C, was 103 % of control

Readout T/C for `CCCc1[nH]n(-c2ccccc2)c(=O)c1N=Nc1ccc(Cl)cc1` , test system P388 leukemia ip, CD2F1 mice, survival T/C, was 96 % of control

Readout T/C for `CC(C)OP(=S)(OC(C)C)SC(C)C` , test system P388 leukemia ip, CD2F1 mice, survival T/C, was 104 % of control

====

# Tested on: P388 leukemia ip, CD2F1 mice, survival T/C
# EXPERIMENT NOTES: NCI In Vivo Anticancer Drug Screen. Data for tumor model P388 Leukemia (intraperitoneal) in CD2F1 (CDF1) mice
# STATED CONDITIONS: endpoint: median survival time; dose: 60.0 mg/kg/injection; schedule: Q01DX005 (ip); vehicle: saline with Tween-80; higher = longer survival
Inconclusive results and toxic doses are left out.
Each item that follows carries a reported T/C.

Cc1[nH]c(=O)nc(CCc2ccccc2)c1-c1ccccc1 : 93 % of control
COc1cc2c(cc1OC)C(Cc1ccccc1NC(=O)c1ccc(C(=O)Nc3ccccc3CC3c4cc(OC)c(OC)cc4CCN3C)cc1)N(C)CC2 (stereo not given) : 89 % of control
Cc1cn2c(n1)Nc1sc3c(c1C2)CCCC3 : 101 % of control
COc1cccc(OC)c1OC(=O)Nc1ccccc1F : 102 % of control

Short answer for CC(C(=O)c1cc(Cl)cc(Cl)c1O)C1(O)C(=O)Nc2ccccc21 (stereo not given) : T/C was 107 % of control

Short answer for `COc1cc(-c2nn3c(C)c(-c4ccccc4)nc3s2)cc(OC)c1OC` : T/C was 101 % of control

Short answer for COc1cc(C2SCC(=O)N2c2nnc(C(F)(F)F)s2)cc(OC)c1OC (stereo not given) : T/C was 98 % of control

Short answer for `Cc1nn(C)c(Cl)c1C(=O)Nc1ccccc1` : T/C was 98 % of control

Short answer for N#CC(C(=O)CCc1nc2ccccc2[nH]1)c1nc2ccccc2s1 (stereo not given) : T/C was 102 % of control

Short answer for CSc1nc(NC2OC(COC(C)=O)C(OC(C)=O)C(OC(C)=O)C2OC(C)=O)c(N=C(C)C(C)=O)c(=O)n1C (stereo not given) : T/C was 90 % of control

====

# System: P388 leukemia ip, CD2F1 mice, survival T/C
# EXPERIMENT NOTES: NCI In Vivo Anticancer Drug Screen. Data for tumor model P388 Leukemia (intraperitoneal) in CD2F1 (CDF1) mice
# STATED CONDITIONS: endpoint: median survival time; dose: 100.0 mg/kg/injection; schedule: Q01DX005 (ip); vehicle: saline; higher = longer survival
Inconclusive results and toxic doses are left out.
Each item that follows carries a reported T/C.

Please review the following examples before continuing.
O=C(O)c1ccccc1-c1c2ccc(=Nc3ccccc3)cc-2oc2cc(Nc3ccc(S(=O)(=O)O)cc3)ccc12 : 98 % of control
O=C1OC(C(O)C(O)CO)C(O)C1O (stereo not drawn) : 100 % of control

Below: the item to evaluate.
Short answer for COc1ccc(NS(=O)(=O)c2ccc(NC3OC(CO)C(O)C(O)C3NC(C)=O)cc2)nn1 (stereo not drawn) : T/C was 100 % of control
